Source: patent US12390441B2

# Tested on: TNF-α
# PROTOCOL_DETAILS: Whole blood assay, LPS stimulation, MSD cytokine detection
# Assay type: cell-based
# ASSAY_CONDITIONS: fresh whole bovine blood
ENDPOINT: pIC50
One number for each entry, as −log10 of the molar value.

>  <COMPOUND>
CC[C@H]1OC(=O)[C@H](C)[C@@H](O)[C@H](C)[C@@H](O[C@@H]2O[C@H](C)C[C@H](N(C)C(=O)N(C)c3ncccn3)[C@H]2Oc2ccccc2)[C@](C)(O)C[C@@H](C)CN(C)[C@H](C)[C@@H](O)[C@]1(C)O [Example C-17]

>  <TESTED_TARGET>
TNF-α

>  <pIC50>
4.42

$$$$

# input for lookup
Consider the compound CC[C@H]1OC(=O)[C@H](C)[C@@H](O)[C@H](C)[C@@H](O[C@@H]2O[C@H](C)C[C@H](N(C)C(=O)N(C)c3ccccc3)[C@H]2Oc2cc(F)c(OC)c(F)c2)[C@](C)(O)C[C@@H](C)CN(C)[C@H](C)[C@@H](O)[C@]1(C)O and give its recorded pIC50. 3.74

====

Kindly state % Survival for each of the entries shown.
# System: P. multocida 46572
# PROTOCOL_DETAILS: In vivo mouse lung infection challenge model (murine)
# Parameters: species or system CD-1 female mice
# ASSAY_CONDITIONS: 46572, sc, 20 mg/kg, 240 h
Numbers only, in %.

See these solved cases before continuing.
>  <MOLECULE>
CCCNC[C@]1(O)[C@H](C)O[C@@H](O[C@H]2[C@H](C)[C@@H](O[C@@H]3O[C@H](C)C[C@H](N(C)C(=O)N(C)c4cc(C)n(C)n4)[C@H]3Oc3ccccc3)[C@](C)(O)C[C@@H](C)CN[C@H](C)[C@@H](O)[C@](C)(O)[C@@H](CC)OC(=O)[C@@H]2C)C[C@@]1(C)OC

>  <% Survival / %>
35

$$$$
>  <MOLECULE>
CCCNC[C@]1(O)[C@H](C)O[C@@H](O[C@H]2[C@H](C)[C@@H](O[C@@H]3O[C@H](C)C[C@H](NC)[C@H]3Oc3ccc(C#N)cc3)[C@](C)(O)C[C@@H](C)CN[C@H](C)[C@@H](O)[C@](C)(O)[C@@H](CC)OC(=O)[C@@H]2C)C[C@@]1(C)OC

>  <% Survival / %>
22

$$$$
>  <MOLECULE>
CCCNC[C@]1(O)[C@H](C)O[C@@H](O[C@H]2[C@H](C)[C@@H](O[C@@H]3O[C@H](C)C[C@H](NC)[C@H]3Oc3ccc(OC)cc3)[C@](C)(O)C[C@@H](C)CN[C@H](C)[C@@H](O)[C@](C)(O)[C@@H](CC)OC(=O)[C@@H]2C)C[C@@]1(C)OC

>  <% Survival / %>
36

$$$$

Jot down % Survival (P. multocida 46572) of CC[C@H]1OC(=O)[C@H](C)[C@@H](O[C@H]2C[C@@](C)(OC)[C@@H](O)[C@H](C)O2)[C@H](C)[C@@H](O[C@@H]2O[C@H](C)C[C@H](NC)[C@H]2Oc2ccccc2)[C@](C)(O)C[C@@H](C)CN(C)[C@H](C)[C@@H](O)[C@]1(C)O . 1

====

# System: TNF-α
# PROTOCOL_DETAILS: Whole blood assay, LPS stimulation, MSD cytokine detection
# Assay type: cell-based
# ASSAY_CONDITIONS: fresh whole bovine blood
Could you please report measured pIC50 for the items listed next?
One number for each entry, as −log10 of the molar value.

// below: answered compounds
>  <MOLECULE>
CCCNC[C@]1(O)[C@H](C)O[C@@H](O[C@H]2[C@H](C)[C@@H](O[C@@H]3O[C@H](C)C[C@H](NC)[C@H]3Oc3ccc(OC)cc3)[C@](C)(O)C[C@@H](C)CN(C)[C@H](C)[C@@H](O)[C@](C)(O)[C@@H](CC)OC(=O)[C@@H]2C)C[C@@]1(C)OC

>  <pIC50>
4.64

$$$$
>  <MOLECULE>
CC[C@H]1OC(=O)[C@H](C)[C@@H](O[C@H]2C[C@@](C)(OC)[C@](O)(CN(C)CCN(C)C)[C@H](C)O2)[C@H](C)[C@@H](O[C@@H]2O[C@H](C)C[C@H](NC)[C@H]2Oc2ccccc2)[C@](C)(O)C[C@@H](C)CN[C@H](C)[C@@H](O)[C@]1(C)O

>  <pIC50>
4.00

$$$$
>  <MOLECULE>
CC[C@H]1OC(=O)[C@H](C)[C@@H](O[C@H]2C[C@@](C)(OC)[C@](O)(CNn3ccnc3)[C@H](C)O2)[C@H](C)[C@@H](O[C@@H]2O[C@H](C)C[C@H](N(C)C)[C@H]2Oc2ccccc2)[C@](C)(O)C[C@@H](C)CN[C@H](C)[C@@H](O)[C@]1(C)O

>  <pIC50>
4.96

$$$$

Record pIC50 for all entries; do not skip any.
1. CC[C@H]1OC(=O)[C@H](C)[C@@H](O)[C@H](C)[C@@H](O[C@@H]2O[C@H](C)C[C@H](N(C)C(=O)N(C)C)[C@H]2Oc2ccc(F)cc2C)[C@](C)(O)C[C@@H](C)CN[C@H](C)[C@@H](O)[C@]1(C)O
2. CC[C@H]1OC(=O)[C@H](C)[C@@H](O[C@H]2C[C@@](C)(OC)[C@](O)(CNCCOC)[C@H](C)O2)[C@H](C)[C@@H](O[C@@H]2O[C@H](C)C[C@H](NC)[C@H]2Oc2ccccc2)[C@](C)(O)C[C@@H](C)CN[C@H](C)[C@@H](O)[C@]1(C)O

1: 4.23; 2: 4.49

====

# System: TNF-α
# PROTOCOL_DETAILS: Whole blood assay, LPS stimulation, MSD cytokine detection
# Type: cell-based
# ASSAY_CONDITIONS: fresh whole bovine blood
ENDPOINT: IC50

Here are 3 compounds together with their reported answers.
>  <COMPOUND>
CC[C@H]1OC(=O)[C@H](C)[C@@H](O)[C@H](C)[C@@H](O[C@@H]2O[C@H](C)C[C@H](N(C)C(=O)N(C)c3ccc(C#N)cc3)[C@H]2Oc2ccccc2Cl)[C@](C)(O)C[C@@H](C)CN[C@H](C)[C@@H](O)[C@]1(C)O [Example C-43]

>  <TESTED_TARGET>
TNF-α

>  <IC50>
21 µM

$$$$
>  <COMPOUND>
CCCNC[C@]1(O)[C@H](C)O[C@@H](O[C@H]2[C@H](C)[C@@H](O[C@@H]3O[C@H](C)C[C@H](N(C)C)[C@H]3Oc3ccc4ncccc4c3)[C@](C)(O)C[C@@H](C)CN[C@H](C)[C@@H](O)[C@](C)(O)[C@@H](CC)OC(=O)[C@@H]2C)C[C@@]1(C)OC [Example E-69]

>  <TESTED_TARGET>
TNF-α

>  <IC50>
19 µM

$$$$
>  <COMPOUND>
CC[C@H]1OC(=O)[C@H](C)[C@@H](O[C@H]2C[C@@](C)(OC)[C@](O)(CNC3CCC3)[C@H](C)O2)[C@H](C)[C@@H](O[C@@H]2O[C@H](C)C[C@H](NC)[C@H]2Oc2ccccc2)[C@](C)(O)C[C@@H](C)CN[C@H](C)[C@@H](O)[C@]1(C)O [Example E-126]

>  <TESTED_TARGET>
TNF-α

>  <IC50>
14 µM

$$$$

Next item in the queue.
Give recorded IC50. CC[C@H]1OC(=O)[C@H](C)[C@@H](O[C@H]2C[C@@](C)(OC)[C@@H](O)[C@H](C)O2)[C@H](C)[C@@H](O[C@@H]2O[C@H](C)C[C@H](N(C)C)[C@H]2Oc2ccc(F)c(C#N)c2)[C@](C)(O)C[C@@H](C)CN(C)[C@H](C)[C@@H](O)[C@]1(C)O [Example A-25] 3 µM

====

# Test system: TNF-α
# PROTOCOL_DETAILS: Whole blood assay, LPS stimulation, MSD cytokine detection
# Format: cell-based
# ASSAY_CONDITIONS: fresh whole bovine blood
I'd be grateful if you could share measured IC50 for these entries.
One number for each entry, in µM.

>  <COMPOUND>
CCCNC[C@]1(O)[C@H](C)O[C@@H](O[C@H]2[C@H](C)[C@@H](O[C@@H]3O[C@H](C)C[C@H](NC4CCCCC4)[C@H]3Oc3ccccc3)[C@](C)(O)C[C@@H](C)CN[C@H](C)[C@@H](O)[C@](C)(O)[C@@H](CC)OC(=O)[C@@H]2C)C[C@@]1(C)OC [Example E-154]

>  <TESTED_TARGET>
TNF-α

>  <ENDPOINT>
IC50

>  <READOUT_NUMBER>
5

$$$$
>  <COMPOUND>
CC[C@H]1OC(=O)[C@H](C)[C@@H](O[C@H]2C[C@@](C)(OC)[C@](O)(CNn3cccn3)[C@H](C)O2)[C@H](C)[C@@H](O[C@@H]2O[C@H](C)C[C@H](NC)[C@H]2Oc2ccccc2)[C@](C)(O)C[C@@H](C)CN[C@H](C)[C@@H](O)[C@]1(C)O [Example E-139]

>  <TESTED_TARGET>
TNF-α

>  <ENDPOINT>
IC50

>  <READOUT_NUMBER>
5

$$$$

Provide each entry's IC50 from the list below.
1. CC[C@H]1OC(=O)[C@H](C)[C@@H](O)[C@H](C)[C@@H](O[C@@H]2O[C@H](C)C[C@H](N(C)C(=O)N(C)c3ccccc3)[C@H]2Oc2cc(F)c(OC)c(F)c2)[C@](C)(O)C[C@@H](C)CN[C@H](C)[C@@H](O)[C@]1(C)O [Example C-42]
2. CCCNC[C@]1(O)[C@H](C)O[C@@H](O[C@H]2[C@H](C)[C@@H](O[C@@H]3O[C@H](C)C[C@H](NC)[C@H]3Oc3ccc(OC)c(F)c3)[C@](C)(O)C[C@@H](C)CN[C@H](C)[C@@H](O)[C@](C)(O)[C@@H](CC)OC(=O)[C@@H]2C)C[C@@]1(C)OC [Example E-10]

5
30
